Source listed as patent US20230174596A1.

# target.or.test.system: T1, human VEGF-A (human, UniProt P15692-4 34-135, limits assumed)
# T1 sequence (looked up): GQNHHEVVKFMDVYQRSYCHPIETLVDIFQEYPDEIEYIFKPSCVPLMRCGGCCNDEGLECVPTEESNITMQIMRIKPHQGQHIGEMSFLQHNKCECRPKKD
# test.name: cell-based or functional assay
Mark true only when Cellular Assay IC50, hVEGF-A (25 ng/ml) stays strictly below 20 µM. Values equal to the cut-off are false.

1. GCRDLDVKWDCKQDSDCLAGCFCQYYSSCG (designed binder) [VEGF_CKP10] = false
2. GCTTPWPPHEIMCKQDSDCLAGCVCGPNGFCG (designed binder) [VEGF_CKP12] = false
3. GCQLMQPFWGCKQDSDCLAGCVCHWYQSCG (designed binder) [VEGF_CKP9] = true
4. GCQDPTFNWALYCKQDSDCLAGCVCQMYQSCG (designed binder) [VEGF_CKP7] = true
5. GCPTTRFKQYCKQDSDCLAGCVCGPNGFCG (designed binder) [VEGF_CKP6] = false
